Parameter: kinase still bound, per cent of control. Scope: all listed entries.
- SUBJECT_OF_TEST: PRKCD (human) (UniProt Q05655)
- Sequence (Q05655 whole entry, looked up): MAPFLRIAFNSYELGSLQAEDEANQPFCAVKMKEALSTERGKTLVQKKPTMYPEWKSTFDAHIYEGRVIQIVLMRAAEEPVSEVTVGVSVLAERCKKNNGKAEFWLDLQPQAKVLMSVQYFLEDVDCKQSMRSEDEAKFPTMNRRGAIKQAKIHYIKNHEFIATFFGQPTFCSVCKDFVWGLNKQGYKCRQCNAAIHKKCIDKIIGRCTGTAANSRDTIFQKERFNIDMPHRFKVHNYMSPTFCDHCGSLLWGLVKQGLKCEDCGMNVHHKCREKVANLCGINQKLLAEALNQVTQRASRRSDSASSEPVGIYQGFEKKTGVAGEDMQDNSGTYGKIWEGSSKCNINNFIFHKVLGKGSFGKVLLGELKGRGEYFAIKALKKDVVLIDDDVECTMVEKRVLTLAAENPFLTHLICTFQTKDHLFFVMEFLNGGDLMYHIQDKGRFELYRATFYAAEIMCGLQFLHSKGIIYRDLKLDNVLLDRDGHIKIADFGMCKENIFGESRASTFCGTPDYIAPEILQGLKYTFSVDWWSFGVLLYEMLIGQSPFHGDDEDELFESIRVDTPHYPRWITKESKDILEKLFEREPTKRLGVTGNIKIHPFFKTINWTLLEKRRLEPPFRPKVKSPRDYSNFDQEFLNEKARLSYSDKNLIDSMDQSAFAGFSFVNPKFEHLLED
- ASSAY_NAME: KINOMEscan competition binding
- COND: compound 10.0 µM

STRUCTURE_STRING: O=C1Nc2cc(Br)ccc2/C1=C1/Nc2ccccc2/C1=N\O
kinase still bound, per cent of control, %: 100

STRUCTURE_STRING: Cn1cc(C2=C(c3ccc(Cl)cc3Cl)C(=O)NC2=O)c2ccccc21
kinase still bound, per cent of control, %: 41

STRUCTURE_STRING: Cc1cnc(-c2cnc(NCCNc3ccc(C#N)cn3)nc2-c2ccc(Cl)cc2Cl)[nH]1
kinase still bound, per cent of control, %: 100

STRUCTURE_STRING: COc1ccc(CNC(=O)Nc2ncc([N+](=O)[O-])s2)cc1
kinase still bound, per cent of control, %: 100
